# Study target: CLK1 (human) (UniProt P49759)
# Sequence (P49759 whole entry, looked up): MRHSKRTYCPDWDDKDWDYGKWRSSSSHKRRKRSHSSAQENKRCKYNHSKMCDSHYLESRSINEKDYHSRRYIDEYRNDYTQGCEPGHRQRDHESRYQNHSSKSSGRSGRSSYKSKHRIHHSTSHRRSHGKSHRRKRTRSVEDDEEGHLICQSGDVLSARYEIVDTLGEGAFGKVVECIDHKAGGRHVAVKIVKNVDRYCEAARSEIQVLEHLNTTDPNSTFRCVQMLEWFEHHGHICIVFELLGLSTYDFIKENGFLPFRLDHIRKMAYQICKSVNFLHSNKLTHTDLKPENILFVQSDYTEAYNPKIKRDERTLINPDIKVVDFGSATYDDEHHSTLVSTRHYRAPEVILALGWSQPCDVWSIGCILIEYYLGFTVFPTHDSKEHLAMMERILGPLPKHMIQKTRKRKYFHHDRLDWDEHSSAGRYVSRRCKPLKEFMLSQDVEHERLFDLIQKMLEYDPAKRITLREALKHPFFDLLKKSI
# Assay details: KINOMEscan competition binding
# Conditions used: compound 10.0 µM
Binary label based on kinase still bound, per cent of control with cut-off 5%: below gives Satisfied, not below gives Not satisfied.

Qu. Threshold test, kinase still bound, per cent of control < 5%: N#C/C(=C1/Nc2ccccc2S1)c1ccnc(NCCc2cccnc2)n1
Ans. Not satisfied

***
Qu. Threshold test, kinase still bound, per cent of control < 5%: COc1cc(N2CCC(C(N)=O)CC2)ccc1Nc1nc(N)c(Cl)c(Nc2ccccc2S(=O)(=O)C(C)C)n1
Ans. Satisfied

Qu. Let us now turn to COc1cc2ncnc(Nc3cccc(Cl)c3)c2cc1OC
Ans. Not satisfied

----------
# Study target: MKNK2 (human) (UniProt Q9HBH9)
# Sequence (Q9HBH9 whole entry, looked up): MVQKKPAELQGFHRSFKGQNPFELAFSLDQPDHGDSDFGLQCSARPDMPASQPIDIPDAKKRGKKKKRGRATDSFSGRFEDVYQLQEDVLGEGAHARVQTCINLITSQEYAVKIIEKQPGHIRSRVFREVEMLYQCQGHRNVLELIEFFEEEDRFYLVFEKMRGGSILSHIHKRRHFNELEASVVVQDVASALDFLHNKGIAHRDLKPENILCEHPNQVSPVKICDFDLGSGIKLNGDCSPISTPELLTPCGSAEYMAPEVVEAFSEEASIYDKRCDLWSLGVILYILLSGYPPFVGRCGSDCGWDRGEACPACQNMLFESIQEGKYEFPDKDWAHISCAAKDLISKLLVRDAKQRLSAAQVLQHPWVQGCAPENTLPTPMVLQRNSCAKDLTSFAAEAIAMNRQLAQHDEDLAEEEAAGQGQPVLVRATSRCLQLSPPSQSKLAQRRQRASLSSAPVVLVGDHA
# Assay details: KINOMEscan competition binding
# Conditions used: compound 10.0 µM
Measured endpoint: kinase still bound, per cent of control (%)
Report only the number, with the unit % understood.

Solved entries:
Qu. Enter reported kinase still bound, per cent of control observed with MKNK2 (human) (UniProt Q9HBH9) for N#C/C(=C1/Nc2ccccc2S1)c1ccnc(NCCc2cccnc2)n1
Ans. 0.5

Qu. Let us now turn to C=CC(=O)Nc1ccc(C(=O)c2sc(Nc3ccc(N4CCN(C)CC4)cc3OC)nc2N)cc1
Ans. 29

Qu. Let us now turn to COc1ccc(N(C(=O)Oc2cc(C(=O)Nc3cccc(C(F)(F)F)c3)ccc2C)c2ccnc(Nc3ccc(N4CCN(C)CC4)cc3)n2)c(OC)c1
Ans. 100

***
Qu. Enter reported kinase still bound, per cent of control observed with MKNK2 (human) (UniProt Q9HBH9) for Cc1cn(-c2cc(C(=O)Nc3ccc(C)c(NC(=O)c4ccno4)c3)cc(C(F)(F)F)c2)cn1
Ans. 100

----------
# Study target: MARK1 (human)
# Assay details: KINOMEscan competition binding
# Conditions used: compound 10.0 µM
Measured endpoint: kinase still bound, per cent of control (%)
Report only the number, with the unit % understood.

Qu. What measured kinase still bound, per cent of control goes with CC(=O)c1c(C)c2cnc(Nc3ccc(N4CCNCC4)cn3)nc2n(C2CCCC2)c1=O ?
Ans. 35

Qu. Let us now turn to COc1cc(C)c(Sc2cnc(NC(=O)c3ccc(CNC(C)C(C)C)cc3)s2)cc1C(=O)N1CCN(C(C)=O)CC1 (stereo not given)
Ans. 100

Qu. Let us now turn to COc1cc2ncnc(Nc3cccc(Cl)c3)c2cc1OC
Ans. 100

Qu. Let us now turn to N#C/C(=C1/Nc2ccccc2S1)c1ccnc(NCCc2cccnc2)n1
Ans. 100

***
Qu. What measured kinase still bound, per cent of control goes with COc1ccc(N(C(=O)Oc2cc(C(=O)Nc3cccc(C(F)(F)F)c3)ccc2C)c2ccnc(Nc3ccc(N4CCN(C)CC4)cc3)n2)c(OC)c1 ?
Ans. 100

----------
Below, each entry is listed alongside its reported kinase still bound, per cent of control.
# Study target: EPHA5 (human) (UniProt P54756)
# Sequence (P54756 whole entry, looked up): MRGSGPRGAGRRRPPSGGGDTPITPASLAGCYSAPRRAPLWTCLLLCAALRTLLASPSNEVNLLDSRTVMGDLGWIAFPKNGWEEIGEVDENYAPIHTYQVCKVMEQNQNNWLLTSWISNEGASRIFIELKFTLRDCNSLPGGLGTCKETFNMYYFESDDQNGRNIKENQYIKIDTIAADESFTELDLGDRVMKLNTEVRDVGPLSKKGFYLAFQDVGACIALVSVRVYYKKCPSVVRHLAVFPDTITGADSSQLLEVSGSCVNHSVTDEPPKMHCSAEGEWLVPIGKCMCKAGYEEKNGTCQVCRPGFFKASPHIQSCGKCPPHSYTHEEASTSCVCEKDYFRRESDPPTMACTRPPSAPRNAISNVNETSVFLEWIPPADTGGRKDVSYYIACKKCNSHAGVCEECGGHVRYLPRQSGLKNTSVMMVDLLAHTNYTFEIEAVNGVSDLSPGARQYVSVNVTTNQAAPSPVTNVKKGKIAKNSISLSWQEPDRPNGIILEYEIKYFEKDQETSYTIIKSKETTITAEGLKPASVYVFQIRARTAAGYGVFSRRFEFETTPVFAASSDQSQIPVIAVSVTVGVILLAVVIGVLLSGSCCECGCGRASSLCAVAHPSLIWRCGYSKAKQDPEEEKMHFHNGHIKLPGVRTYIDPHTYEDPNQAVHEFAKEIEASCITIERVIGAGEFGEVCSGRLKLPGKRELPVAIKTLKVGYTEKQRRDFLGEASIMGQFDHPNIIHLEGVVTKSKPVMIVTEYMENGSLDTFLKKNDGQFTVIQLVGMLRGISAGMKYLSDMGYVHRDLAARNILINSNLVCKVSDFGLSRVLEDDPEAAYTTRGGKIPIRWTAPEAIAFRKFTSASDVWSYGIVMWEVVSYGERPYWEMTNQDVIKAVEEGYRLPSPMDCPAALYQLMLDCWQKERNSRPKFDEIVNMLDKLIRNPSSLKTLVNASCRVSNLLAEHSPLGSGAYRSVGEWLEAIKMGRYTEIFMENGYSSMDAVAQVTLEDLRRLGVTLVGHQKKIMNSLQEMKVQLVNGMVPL
# Assay details: KINOMEscan competition binding
# Conditions used: compound 10.0 µM
Report only the number, with the unit % understood.

Solved entries:
Qu. What measured kinase still bound, per cent of control goes with CCc1nc(-c2cccc(C)c2)c(-c2ccnc(NC(=O)c3ccccc3)c2)s1 ?
Ans. 90

Qu. Let us now turn to CCN1CCN(Cc2ccc(NC(=O)c3ccc(C)c(/C=C/c4cnc5[nH]ccc5c4OC)c3)cc2C(F)(F)F)CC1
Ans. 3.6

Qu. Let us now turn to C=CC(=O)Nc1ccc(C(=O)c2sc(Nc3ccc(N4CCN(C)CC4)cc3OC)nc2N)cc1
Ans. 89

Qu. Let us now turn to CCCS(=O)(=O)Nc1ccc(F)c(C(=O)c2c[nH]c3ncc(Cl)cc23)c1F
Ans. 100

Qu. Let us now turn to COc1cc2ncnc(Nc3cccc(Cl)c3)c2cc1OC
Ans. 55

Qu. Let us now turn to Cc1cn(-c2cc(C(=O)Nc3ccc(C)c(NC(=O)c4ccno4)c3)cc(C(F)(F)F)c2)cn1
Ans. 17

***
Qu. What measured kinase still bound, per cent of control goes with N#Cc1cc(-c2ccnc(Nc3ccc(-n4cnc(-c5cccnc5)n4)cc3)n2)cc(N2CCOCC2)c1 ?
Ans. 91

Qu. Let us now turn to COc1cc(C)c(Sc2cnc(NC(=O)c3ccc(CNC(C)C(C)C)cc3)s2)cc1C(=O)N1CCN(C(C)=O)CC1 (centres undefined)
Ans. 100

Qu. Let us now turn to COc1ccc(N(C(=O)Oc2cc(C(=O)Nc3cccc(C(F)(F)F)c3)ccc2C)c2ccnc(Nc3ccc(N4CCN(C)CC4)cc3)n2)c(OC)c1
Ans. 0.85

Hello, the source for this data is the kinase profiling compilation of Christmann-Franck et al. (2016), in case you need it.
